Recorded values, source patent US6902901B2.

# key: entry, value: Absorbance at 490 nm, Specific IgG
- Tested on: A. fumigatus specific IgG antibodies in sera
- Assay Details: ELISA of peptide-coated plates with human sera, specific IgG binding
- Measurement Parameters: Normal sera, diluted 1:100
Please state the value as a number alone, without comment.

Solved entries:
LNPKTNKWEDKRY [pep 6] : 0.004
INQQLNPKTNKWEDK (listed as Aspergillus fumigatus) [pep 4, 15 aminoacids peptide, aa 6-20 of the 18 kD allergen/antigen] : 0.006
LNPKTNKWEDK (listed as Aspergillus fumigatus) [pep 2, 11 aminoacids peptide, aa 10-20 of the 18 kD allergen/antigen] : 0.09
TNKWEDK [pep 5] : 0.012

Could you now consider this next substance?
QUERY: Look at this substance and give its reported Absorbance at 490 nm, Specific IgG. INQQLNPK (listed as Aspergillus fumigatus) [pep 3, 8 aminoacids peptide, aa 6-14 (also printed aa 6-13) of the 18 kD allergen/antigen]
RESULT: 0.011

* * *

- Test system: Peripheral blood lymphocytes (PBL)
- Assay Details: Cytokine analysis of PBMC supernatants incubated with peptides
- Type: cell-based, human
- Measurement Parameters: PBMC supernatant, 6 days culture with peptide
- Description: Peripheral blood lymphocytes (PBL) from healthy donors and aspergillosis patients were fractionated and 2×10^6 cells/well were cultured in presence or absence of synthetic peptides for 6 days in RPMI 1640 medium with 10% autologous serum. The supernatant medium was collected for cytokine analysis and 0.5 mg/ml solution of MTT was added to each well for 30 min. before harvesting cultures with acidified isopropanol. Absorbance was measured at 590 nm.
Binary label based on gamma-IFN with cut-off 300 pg/mL: below gives condition met, not below gives condition not met.

QUERY: Please state whether gamma-IFN is below 300 pg/mL for LNPKTNKWEDK (listed as Aspergillus fumigatus) [pep 2, 11 aminoacids peptide, aa 10-20 of the 18 kD allergen/antigen]
RESULT: condition not met

QUERY: hey, is gamma-IFN for TNKWEDK [pep 5] lower than 300 pg/mL or not?
RESULT: condition not met

QUERY: Decide: gamma-IFN of INQQLNPK (listed as Aspergillus fumigatus) [pep 3, 8 aminoacids peptide, aa 6-14 (also printed aa 6-13) of the 18 kD allergen/antigen] strictly below 300 pg/mL?
RESULT: condition met

QUERY: is_below(gamma-IFN, 300 pg/mL) for LNPKTNKWEDKRY [pep 6] ?
RESULT: condition met

QUERY: Identify whether the substance INQQLNPKTNKWEDK (listed as Aspergillus fumigatus) [pep 4, 15 aminoacids peptide, aa 6-20 of the 18 kD allergen/antigen] records gamma-IFN below 300 pg/mL.
RESULT: condition not met

* * *

- System: A. fumigatus specific IgG antibodies in sera
- Assay Details: ELISA of peptide-coated plates with human sera, specific IgG binding
- Measurement Parameters: Patient sera (ABPA), diluted 1:100
Where Absorbance at 490 nm, Specific IgG equals or exceeds 0.8, the correct label is Criterion met; where it does not, the label is Criterion not met.

INQQLNPK (listed as Aspergillus fumigatus) [pep 3, 8 aminoacids peptide, aa 6-14 (also printed aa 6-13) of the 18 kD allergen/antigen] : Criterion not met

QUERY: Item LNPKTNKWEDKRY [pep 6] with Absorbance at 490 nm, Specific IgG of 0.8 or above?
RESULT: Criterion met

QUERY: For this substance, is measured Absorbance at 490 nm, Specific IgG 0.8 or higher? LNPKTNKWEDK (listed as Aspergillus fumigatus) [pep 2, 11 aminoacids peptide, aa 10-20 of the 18 kD allergen/antigen]
RESULT: Criterion met

QUERY: Answer whether Absorbance at 490 nm, Specific IgG of TNKWEDK [pep 5] is greater than or equal to 0.8.
RESULT: Criterion met

QUERY: Exam item: decide whether the reported Absorbance at 490 nm, Specific IgG for INQQLNPKTNKWEDK (listed as Aspergillus fumigatus) [pep 4, 15 aminoacids peptide, aa 6-20 of the 18 kD allergen/antigen] is at least 0.8.
RESULT: Criterion met

* * *

- System: mixture of A. fumigatus allergens/antigens and purified 18 kD allergen/antigen
- Assay Details: Intraperitoneal immunisation of mice with peptide, serum IgG ELISA
- Type: in vivo, BALB/c mice
- Measurement Parameters: Immunised mice; 300 ug peptide i.p. with Freund's incomplete adjuvant; serum 30 days after immunization
Entries and their Absorbance at 490 nm, specific IgG antibodies in mice
Just the number, please, no unit attached.

Please review the entries below; each comes with its answer.
LNPKTNKWEDK (listed as Aspergillus fumigatus) [pep 2, 11 aminoacids peptide, aa 10-20 of the 18 kD allergen/antigen] : 0.636
LNPKTNKWEDKRY [pep 6] : 0.547
INQQLNPKTNKWEDK (listed as Aspergillus fumigatus) [pep 4, 15 aminoacids peptide, aa 6-20 of the 18 kD allergen/antigen] : 0.526
INQQLNPK (listed as Aspergillus fumigatus) [pep 3, 8 aminoacids peptide, aa 6-14 (also printed aa 6-13) of the 18 kD allergen/antigen] : 0.434

Next, consider the following substance.
QUERY: Can you look up the measured Absorbance at 490 nm, specific IgG antibodies in mice of TNKWEDK [pep 5] for me?
RESULT: 0.498

* * *

- Tested on: Peripheral blood lymphocytes (PBL)
- Assay Details: Cytokine analysis of PBMC supernatants incubated with peptides
- Assay type: cell-based, human
- Measurement Parameters: PBMC supernatant, 6 days culture with peptide
Quantity: IL-2 (pg/mL)
// units = pg/mL; emit number, no label

INQQLNPKTNKWEDK (listed as Aspergillus fumigatus) [pep 4, 15 aminoacids peptide, aa 6-20 of the 18 kD allergen/antigen] : 400
INQQLNPK (listed as Aspergillus fumigatus) [pep 3, 8 aminoacids peptide, aa 6-14 (also printed aa 6-13) of the 18 kD allergen/antigen] : 80
LNPKTNKWEDK (listed as Aspergillus fumigatus) [pep 2, 11 aminoacids peptide, aa 10-20 of the 18 kD allergen/antigen] : 280
LNPKTNKWEDKRY [pep 6] : 120

Alright, here's another substance for you.
QUERY: What reported IL-2 corresponds to TNKWEDK [pep 5] on Peripheral blood lymphocytes (PBL)?
RESULT: 260

* * *

- Test system: A. fumigatus specific IgE antibodies in sera
- Assay Details: ELISA of peptide-coated plates with human sera, specific IgE binding
- Measurement Parameters: Patient sera (ABPA)
Quantity: Absorbance at 490 nm, Specific IgE
# print the numeric value only

LNPKTNKWEDK (listed as Aspergillus fumigatus) [pep 2, 11 aminoacids peptide, aa 10-20 of the 18 kD allergen/antigen] : 0.473
INQQLNPK (listed as Aspergillus fumigatus) [pep 3, 8 aminoacids peptide, aa 6-14 (also printed aa 6-13) of the 18 kD allergen/antigen] : 0.256
TNKWEDK [pep 5] : 0.208

QUERY: For the substance INQQLNPKTNKWEDK (listed as Aspergillus fumigatus) [pep 4, 15 aminoacids peptide, aa 6-20 of the 18 kD allergen/antigen] , what Absorbance at 490 nm, Specific IgE is on record?
RESULT: 0.235

QUERY: Please give the measured Absorbance at 490 nm, Specific IgE for this substance: LNPKTNKWEDKRY [pep 6]
RESULT: 0.145
